Reference source: paper PMC13110267

I'd appreciate it if you could supply pIC50 values for the items below.
Biological target: HDAC8 (Homo sapiens, UniProt Q9BY41)
Sequence (Q9BY41 whole entry): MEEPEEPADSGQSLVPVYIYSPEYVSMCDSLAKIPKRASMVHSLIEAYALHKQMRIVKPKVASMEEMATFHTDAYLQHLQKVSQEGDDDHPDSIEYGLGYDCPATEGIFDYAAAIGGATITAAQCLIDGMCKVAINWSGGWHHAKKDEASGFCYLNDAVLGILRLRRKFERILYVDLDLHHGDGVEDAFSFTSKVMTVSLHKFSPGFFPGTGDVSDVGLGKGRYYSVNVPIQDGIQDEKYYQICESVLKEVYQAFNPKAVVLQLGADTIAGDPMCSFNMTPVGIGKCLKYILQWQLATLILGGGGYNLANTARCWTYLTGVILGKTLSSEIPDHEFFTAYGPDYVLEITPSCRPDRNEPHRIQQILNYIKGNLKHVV
Assay: HDAC8 fluorometric enzyme inhibition assay, purified recombinant enzyme, 10-point dose-response
Conditions: Table 1; purified recombinant HDAC8 10 nM; mean of three independent experiments; >35 µM = weak inhibitor
pIC50: −log10 of the molar value.

Previously resolved entries follow.
# compound, pIC50
data = [
    ("CCOc1c(Nc2ccc(F)cc2)c(=O)c1=O", 5.92),
    ("CCOc1c(NCc2ccccc2Br)c(=O)c1=O [Compound 10e]", "< 4.46"),
]

Give pIC50 for each of the items listed below.
1. CCOc1c(N2CCS(=O)(=O)CC2)c(=O)c1=O
2. CCOc1c(N2CCCC2)c(=O)c1=O [Compound 12b]
3. O=c1c(Nc2ccccc2)c(Nc2ccccc2)c1=O [Compound 13a]
4. CCOc1c(Nc2ccc(O)cc2)c(=O)c1=O

# output
["< 4.46", "< 4.46", "< 4.46", "< 4.46"]

---

Target: UniProtKB P56524
Sequence (P56524 whole entry): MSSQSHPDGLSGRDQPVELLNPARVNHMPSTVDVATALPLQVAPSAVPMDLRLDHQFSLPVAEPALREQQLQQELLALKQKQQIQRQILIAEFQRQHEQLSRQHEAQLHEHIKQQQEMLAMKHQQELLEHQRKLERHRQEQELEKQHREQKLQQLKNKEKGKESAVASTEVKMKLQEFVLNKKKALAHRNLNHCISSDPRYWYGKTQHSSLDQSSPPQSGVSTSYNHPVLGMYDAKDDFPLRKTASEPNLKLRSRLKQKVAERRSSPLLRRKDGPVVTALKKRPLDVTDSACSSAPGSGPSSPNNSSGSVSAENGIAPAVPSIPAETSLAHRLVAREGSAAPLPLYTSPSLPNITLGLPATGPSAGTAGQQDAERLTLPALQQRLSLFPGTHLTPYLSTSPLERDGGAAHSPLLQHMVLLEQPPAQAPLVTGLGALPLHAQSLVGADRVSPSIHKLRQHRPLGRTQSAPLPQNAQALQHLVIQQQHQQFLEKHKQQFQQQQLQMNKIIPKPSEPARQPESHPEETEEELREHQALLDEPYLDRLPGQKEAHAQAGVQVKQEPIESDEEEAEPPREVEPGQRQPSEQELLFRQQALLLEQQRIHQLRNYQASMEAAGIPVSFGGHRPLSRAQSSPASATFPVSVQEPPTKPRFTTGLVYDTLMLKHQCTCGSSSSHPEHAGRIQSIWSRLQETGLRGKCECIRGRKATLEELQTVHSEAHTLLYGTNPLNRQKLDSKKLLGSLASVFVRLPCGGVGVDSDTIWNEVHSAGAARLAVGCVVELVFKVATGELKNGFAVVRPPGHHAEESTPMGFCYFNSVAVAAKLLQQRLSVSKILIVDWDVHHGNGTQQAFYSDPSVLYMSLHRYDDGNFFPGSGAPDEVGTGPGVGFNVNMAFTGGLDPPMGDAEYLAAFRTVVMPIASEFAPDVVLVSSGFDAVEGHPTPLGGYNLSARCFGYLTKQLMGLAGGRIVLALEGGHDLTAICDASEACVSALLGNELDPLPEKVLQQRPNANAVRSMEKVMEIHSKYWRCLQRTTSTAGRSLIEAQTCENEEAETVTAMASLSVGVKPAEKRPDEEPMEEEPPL
Experiment: HDAC4 fluorometric enzyme inhibition assay, purified recombinant enzyme, 10-point dose-response
Details: Table 1; purified recombinant HDAC4 1 nM; mean of three independent experiments; >35 µM = weak inhibitor
pIC50: −log10 of the molar value.
I'd appreciate it if you could supply pIC50 values for the items below.

# compound, pIC50
measured = [
    ("CCOc1c(Nc2ccc(F)cc2)c(=O)c1=O", 5.07),
    ("CCOc1c(N2CCS(=O)(=O)CC2)c(=O)c1=O", "< 4.46"),
    ("O=c1c(N2CCOCC2)c(N2CCOCC2)c1=O [Compound 16a]", "< 4.46"),
    ("CCOc1c(N2CCOCC2)c(=O)c1=O [Compound 12e]", "< 4.46"),
    ("CCOc1c(N2CCN(C(=O)OC(C)(C)C)CC2)c(=O)c1=O [Compound 12j]", "< 4.46"),
    ("CCOc1c(Nc2cccc(Br)c2)c(=O)c1=O", "< 4.46"),
    ("CCOc1c(NCc2ccc(Cl)cc2)c(=O)c1=O [Compound 10d]", "< 4.46"),
    ("CCOc1c(Nc2ccccc2C)c(=O)c1=O", "< 4.46"),
    ("CCOc1c(Nc2ccccc2O)c(=O)c1=O", "< 4.46"),
    ("O=c1c(N2CCCCC2)c(N2CCCCC2)c1=O [Compound 16b]", "< 4.46"),
]

Give pIC50 for each of the items listed below.
1. CCOc1c(N2CCSCC2)c(=O)c1=O [Compound 12g]
2. CN(Cc1ccccc1)c1c(N(C)Cc2ccccc2)c(=O)c1=O [Compound 14b]
3. CCOc1c(N(C(C)C)C(C)C)c(=O)c1=O
4. CCOc1c(Nc2cccc(C(F)(F)F)c2)c(=O)c1=O
5. CCOc1c(Nc2ccc(Br)cc2)c(=O)c1=O
6. CCOc1c(Nc2ccc(O)cc2)c(=O)c1=O

# output
["< 4.46", 4.85, "< 4.46", "< 4.46", "< 4.46", "< 4.46"]

Give pIC50 for each of the items listed below.
1. CCOc1c(Nc2cccc(Cl)c2)c(=O)c1=O
2. CCOc1c(NCc2ccccc2Cl)c(=O)c1=O [Compound 10b]
3. CCOc1c(NCc2cccc(Cl)c2)c(=O)c1=O [Compound 10c]
4. CN(c1ccc(Br)cc1)c1c(N(C)c2ccc(Br)cc2)c(=O)c1=O [Compound 14c]
5. CCOc1c(Nc2ccccc2OC)c(=O)c1=O
6. CCOc1c(Nc2cccc(OC)c2)c(=O)c1=O
7. O=c1c(NCc2ccccc2)c(NCc2ccccc2)c1=O [Compound 13b]
8. CN1CCCN(C)c2c1c(=O)c2=O [Compound 17b]

# output
< 4.46
< 4.46
< 4.46
< 4.46
< 4.46
< 4.46
5.34
< 4.46

Give pIC50 for each of the items listed below.
1. CCOc1c(N2CCCCC2)c(=O)c1=O [Compound 12c]
2. CCOc1c(N2C[C@@H](C)O[C@@H](C)C2)c(=O)c1=O [Compound 12f]
3. CCOc1c(N2CCCCCC2)c(=O)c1=O [Compound 12d]

# output
["< 4.46", "< 4.46", "< 4.46"]

Give pIC50 for each of the items listed below.
1. CCOc1c(Nc2ccc(C(F)(F)F)cc2)c(=O)c1=O
2. CCOc1c(N2CCCc3ccc(Br)cc32)c(=O)c1=O [Compound 12k]
3. O=c1c(N(Cc2ccccc2)c2ccc(Br)cc2)c(N(Cc2ccccc2)c2ccc(Br)cc2)c1=O

# output
1. < 4.46
2. < 4.46
3. < 4.46

Give pIC50 for each of the items listed below.
1. O=c1c(Nc2ccccc2)c(Nc2ccccc2)c1=O [Compound 13a]
2. CCOc1c(N2CCC2)c(=O)c1=O [Compound 12a]
3. CCOc1c(Nc2cccc(C(=O)O)c2)c(=O)c1=O
4. CN(c1ccccc1)c1c(N(C)c2ccccc2)c(=O)c1=O [Compound 14a]
5. CCOc1c(NCc2ccccc2Br)c(=O)c1=O [Compound 10e]

# output
4.85
< 4.46
< 4.46
< 4.46
< 4.46

Give pIC50 for each of the items listed below.
1. CC(C)N1CCN(C(C)C)c2c1c(=O)c2=O [Compound 17a]
2. CCOc1c(N(C)c2ccc(Br)cc2)c(=O)c1=O
3. CCOc1c(Nc2ccc(C)cc2)c(=O)c1=O
4. O=c1c(Nc2ccc(Br)cc2)c(Nc2ccc(Br)cc2)c1=O [Compound 13c]
5. CCOc1c(NCc2ccccc2)c(=O)c1=O [Compound 10a]
6. CCOc1c(NCc2ccc(Br)cc2)c(=O)c1=O [Compound 10g]
7. CCOc1c(Nc2ccccc2)c(=O)c1=O

# output
< 4.46
< 4.46
< 4.46
4.96
< 4.46
< 4.46
< 4.46

# input Observed pIC50 on UniProtKB P56524 for CCOc1c(NCc2cccc(Br)c2)c(=O)c1=O [Compound 10f] , please.
# output < 4.46
